recovery values, listed per item
- Assay Text: Caco-2 cell monolayer membrane transport assay
- Cond: human, Caco-2, Recovery rate in mass, Mean, Caco-2; A-B; mean of two samples
Measurement Kind: recovery (%)

# Smiles Record, Measurement Kind, Measured
rows = [
    ("CO[C@H]1C(=O)[C@]2(C)[C@@H](OC(=O)N(C)C)C[C@H]3OC[C@@]3(OC(C)=O)[C@H]2[C@H](OC(=O)c2ccccc2)[C@]2(O)C[C@H](OC(=O)[C@H](O)[C@@H](NC(=O)c3ccccc3)c3ccccc3)C(C)=C1C2(C)C", "recovery", 81.9),
    ("CO[C@H]1C(=O)[C@]2(C)[C@@H](OC(=O)N(C)C)C[C@H]3OC[C@@]3(OC(C)=O)[C@H]2[C@H](OC(=O)c2ccccc2)[C@]2(O)C[C@H](OC(=O)[C@H](O)[C@H](CC(C)C)NC(=O)OC(C)(C)C)C(C)=C1C2(C)C", "recovery", 67.4),
    ("CO[C@H]1C(=O)[C@]2(C)[C@@H](OC(=O)N(C)C)C[C@H]3OC[C@@]3(OC(C)=O)[C@H]2[C@H](OC(=O)c2ccccc2)[C@]2(O)C[C@H](OC(=O)[C@H](O)[C@@H](NC(=O)N(C)C)c3ccccc3)C(C)=C1C2(C)C", "recovery", 91.3),
]

From: patent US10253007B2
